This collection of values is drawn from patent US9085606B2.

biological target: Recombinant human integrin α5β1 (Homo sapiens, UniProt P05556+P08648); test: Solid Phase Receptor Assay for α5β1 Function; conditions: binding to fibronectin-coated plate; read-out: α5β1 SPRA IC50
Sequence (P08648 42-995 limits assumed, one chain of several): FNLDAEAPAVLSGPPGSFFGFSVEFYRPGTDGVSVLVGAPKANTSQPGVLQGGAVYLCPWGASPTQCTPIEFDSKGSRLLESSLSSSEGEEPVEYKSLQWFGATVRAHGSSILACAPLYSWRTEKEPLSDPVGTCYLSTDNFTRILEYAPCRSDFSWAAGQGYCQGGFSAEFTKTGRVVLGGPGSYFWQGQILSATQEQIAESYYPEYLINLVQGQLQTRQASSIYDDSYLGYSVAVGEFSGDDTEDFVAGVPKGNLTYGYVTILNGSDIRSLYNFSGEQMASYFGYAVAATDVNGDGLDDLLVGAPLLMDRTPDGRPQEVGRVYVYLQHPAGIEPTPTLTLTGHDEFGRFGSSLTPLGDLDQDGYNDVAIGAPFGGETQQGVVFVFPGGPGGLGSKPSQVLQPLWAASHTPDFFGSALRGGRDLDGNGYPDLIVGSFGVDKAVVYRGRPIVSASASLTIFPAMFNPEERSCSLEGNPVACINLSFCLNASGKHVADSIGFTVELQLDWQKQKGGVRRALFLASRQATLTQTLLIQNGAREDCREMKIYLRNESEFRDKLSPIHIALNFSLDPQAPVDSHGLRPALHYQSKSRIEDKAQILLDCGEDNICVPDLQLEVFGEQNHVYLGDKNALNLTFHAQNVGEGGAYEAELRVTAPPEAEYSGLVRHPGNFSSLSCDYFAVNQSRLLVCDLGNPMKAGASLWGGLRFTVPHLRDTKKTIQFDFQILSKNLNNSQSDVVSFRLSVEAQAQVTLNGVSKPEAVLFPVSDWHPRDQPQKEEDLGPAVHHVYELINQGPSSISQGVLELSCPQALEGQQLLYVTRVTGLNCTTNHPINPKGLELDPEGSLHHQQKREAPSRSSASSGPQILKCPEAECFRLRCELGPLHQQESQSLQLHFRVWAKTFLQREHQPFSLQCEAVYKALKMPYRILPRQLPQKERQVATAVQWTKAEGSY
Consider the following molecules; for each one, report its IC50.
Answers are plain numbers, in nM.

# Molecule, IC50 (nM)
measured = [
    ("CC(C)(c1cc(Cl)cc([C@H](CC(=O)O)NC(=O)CNC(=O)c2cc(O)cc(NC3=NCC(O)CN3)c2)c1)C(F)(F)F (some centres unmarked)", 0.3),
    ("CC(C)(C)c1cc(-c2cccnc2)cc([C@H](CC(=O)O)NC(=O)CNC(=O)c2cc(O)cc(NC3=NCC(O)CN3)c2)c1 (some centres unmarked)", 0.4),
    ("CC(C)(C)c1cc(Br)c(O)c([C@H](CC(=O)O)NC(=O)CNC(=O)c2cc(O)cc(NC3=NCC(O)CN3)c2)c1 (some centres unmarked)", 0.5),
    ("CC(C)(C)c1cc(Br)cc([C@H](CC(=O)O)NC(=O)CNC(=O)c2cccc(NC3=NCCN3)c2)c1", 0.7),
]

Below are 3 molecules. Give each one its IC50.
1. COCC1(c2cc(Cl)cc([C@H](CC(=O)O)NC(=O)CNC(=O)c3cc(O)cc(NC4=NCC(O)CN4)c3)c2)CCOCC1 (some centres unmarked)
2. CC(C)(C)c1cc(-c2cncnc2)cc([C@H](CC(=O)O)NC(=O)CNC(=O)c2cc(O)cc(NC3=NCC(O)CN3)c2)c1 (some centres unmarked)
3. COCC(C)(C)c1cc(Cl)cc([C@H](CC(=O)O)NC(=O)CNC(=O)c2cc(O)cc(NC3=NCC(O)CN3)c2)c1 (some centres unmarked)

0.5
0.4
0.2

Below are 5 molecules. Give each one its IC50.
1. CC(O)(c1cc(Cl)cc([C@H](CC(=O)O)NC(=O)CNC(=O)c2cc(O)cc(NC3=NCC(O)CN3)c2)c1)C(F)(F)F (some centres unmarked)
2. CC(C)(C)c1cc([C@H](CC(=O)O)NC(=O)CNC(=O)c2cncc(NC(=N)N)c2)cc(C(C)(C)C)c1
3. CC(C)(C)c1cc(Br)cc([C@H](CC(=O)O)NC(=O)CNC(=O)c2cc(O)cc(NC3=NCCN3)c2)c1
4. CC(C)(O)c1cc([C@H](CC(=O)O)NC(=O)CNC(=O)c2cc(O)cc(NC3=NCC(O)CN3)c2)cc(C(F)(F)F)c1 (some centres unmarked)
5. O=C(O)C[C@H](NC(=O)CNC(=O)c1cc(O)cc(NC2=NCC(O)CN2)c1)c1cc(Cl)cc(C2(CF)CCOCC2)c1 (some centres unmarked)

0.3
0.5
0.5
0.9
2.4

----------
molecular target: Recombinant human integrin αvβ1 (Homo sapiens, UniProt P05556+P06756); assay: Solid Phase Receptor Assay for αvβ1 Function; conditions: binding to fibronectin-coated plate; read-out: αvβ1 SPRA IC50
Sequence (P06756 31-992 limits assumed): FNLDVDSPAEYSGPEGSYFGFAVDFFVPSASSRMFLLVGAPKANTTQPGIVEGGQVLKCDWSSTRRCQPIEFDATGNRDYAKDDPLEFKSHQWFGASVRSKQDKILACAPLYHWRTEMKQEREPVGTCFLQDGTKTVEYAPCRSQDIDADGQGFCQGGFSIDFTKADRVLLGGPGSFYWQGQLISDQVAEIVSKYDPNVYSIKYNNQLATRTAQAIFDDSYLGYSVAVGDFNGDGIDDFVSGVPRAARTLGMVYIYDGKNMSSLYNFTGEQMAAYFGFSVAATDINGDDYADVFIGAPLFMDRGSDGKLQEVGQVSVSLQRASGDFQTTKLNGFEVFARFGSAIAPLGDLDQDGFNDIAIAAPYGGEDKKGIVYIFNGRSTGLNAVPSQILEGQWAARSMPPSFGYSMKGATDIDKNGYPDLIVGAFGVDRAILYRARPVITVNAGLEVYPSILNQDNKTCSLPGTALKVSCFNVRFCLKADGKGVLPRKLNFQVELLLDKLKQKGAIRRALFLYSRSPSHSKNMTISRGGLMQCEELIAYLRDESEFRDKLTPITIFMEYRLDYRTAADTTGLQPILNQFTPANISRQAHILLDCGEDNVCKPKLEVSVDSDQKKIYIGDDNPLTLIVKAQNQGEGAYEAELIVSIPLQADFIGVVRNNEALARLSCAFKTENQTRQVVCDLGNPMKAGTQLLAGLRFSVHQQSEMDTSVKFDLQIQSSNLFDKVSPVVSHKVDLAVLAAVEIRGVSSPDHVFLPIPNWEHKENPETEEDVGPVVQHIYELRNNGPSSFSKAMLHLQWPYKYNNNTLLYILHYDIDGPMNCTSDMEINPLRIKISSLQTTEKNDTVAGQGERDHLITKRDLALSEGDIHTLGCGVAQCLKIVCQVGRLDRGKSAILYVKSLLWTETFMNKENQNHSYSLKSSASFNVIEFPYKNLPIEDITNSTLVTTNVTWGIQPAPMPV
Sequence (P05556 21-728 limits assumed): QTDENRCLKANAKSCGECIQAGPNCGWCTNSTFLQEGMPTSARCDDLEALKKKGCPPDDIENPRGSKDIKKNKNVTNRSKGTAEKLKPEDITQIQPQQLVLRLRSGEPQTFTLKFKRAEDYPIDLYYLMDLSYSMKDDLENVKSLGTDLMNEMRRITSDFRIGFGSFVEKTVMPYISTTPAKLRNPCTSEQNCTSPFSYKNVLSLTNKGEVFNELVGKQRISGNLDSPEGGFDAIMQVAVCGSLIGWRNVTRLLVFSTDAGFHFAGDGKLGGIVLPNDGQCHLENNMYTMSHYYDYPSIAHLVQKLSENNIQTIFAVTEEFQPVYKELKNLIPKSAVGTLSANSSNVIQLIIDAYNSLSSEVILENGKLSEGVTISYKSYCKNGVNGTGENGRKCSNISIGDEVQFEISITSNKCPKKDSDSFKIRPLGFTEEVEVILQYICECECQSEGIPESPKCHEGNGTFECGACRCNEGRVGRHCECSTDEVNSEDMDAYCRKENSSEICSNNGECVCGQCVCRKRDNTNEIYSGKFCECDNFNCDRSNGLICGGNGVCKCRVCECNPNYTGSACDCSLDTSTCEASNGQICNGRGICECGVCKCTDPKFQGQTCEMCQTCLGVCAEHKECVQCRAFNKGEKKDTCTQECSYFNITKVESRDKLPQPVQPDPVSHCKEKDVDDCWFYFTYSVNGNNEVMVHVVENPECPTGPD
Consider the following compounds; for each one, report its IC50.
Answers are plain numbers, in nM.

Example cases with answers are listed next.
# Compound, IC50 / nM
measured = [
    ("CC(C)(C)c1cc(Br)cc([C@H](CC(=O)O)NC(=O)CNC(=O)c2cncc(NC3=NCC(O)CN3)c2)c1 (stereo partly drawn)", 3),
    ("CC(C)(C)c1cc(-c2cccnc2)cc([C@H](CC(=O)O)NC(=O)CNC(=O)c2cc(O)cc(NC3=NCC(O)CN3)c2)c1 (stereo partly drawn)", 3.4),
    ("COCC(C)(C)c1cc(Cl)cc([C@H](CC(=O)O)NC(=O)CNC(=O)c2cc(O)cc(NC3=NCC(O)CN3)c2)c1 (stereo partly drawn)", 2.4),
    ("O=C(O)C[C@H](NC(=O)CNC(=O)c1cc(O)cc(NC2=NCC(O)CN2)c1)c1cc(Cl)cc(C2(CF)CCOCC2)c1 (stereo partly drawn)", 4.9),
]

Below are 2 compounds. Give each one its IC50.
1. CC(C)(C#N)c1cc(Br)cc([C@H](CC(=O)O)NC(=O)CNC(=O)c2cc(O)cc(NC3=NCC(O)CN3)c2)c1 (stereo partly drawn)
2. CC(C)(O)c1cc(Br)cc([C@H](CC(=O)O)NC(=O)CNC(=O)c2cc(O)cc(NC3=NCC(O)CN3)c2)c1 (stereo partly drawn)

2.8
2.2

----------
target: Recombinant human integrin αvβ6 (Homo sapiens, UniProt P06756+P18564); experiment: Solid Phase Receptor Assay for αvβ6 Function; settings: binding to LAP-coated plate; read-out: αvβ6 SPRA IC50
Sequence (P18564 22-707 limits assumed, one chain of several): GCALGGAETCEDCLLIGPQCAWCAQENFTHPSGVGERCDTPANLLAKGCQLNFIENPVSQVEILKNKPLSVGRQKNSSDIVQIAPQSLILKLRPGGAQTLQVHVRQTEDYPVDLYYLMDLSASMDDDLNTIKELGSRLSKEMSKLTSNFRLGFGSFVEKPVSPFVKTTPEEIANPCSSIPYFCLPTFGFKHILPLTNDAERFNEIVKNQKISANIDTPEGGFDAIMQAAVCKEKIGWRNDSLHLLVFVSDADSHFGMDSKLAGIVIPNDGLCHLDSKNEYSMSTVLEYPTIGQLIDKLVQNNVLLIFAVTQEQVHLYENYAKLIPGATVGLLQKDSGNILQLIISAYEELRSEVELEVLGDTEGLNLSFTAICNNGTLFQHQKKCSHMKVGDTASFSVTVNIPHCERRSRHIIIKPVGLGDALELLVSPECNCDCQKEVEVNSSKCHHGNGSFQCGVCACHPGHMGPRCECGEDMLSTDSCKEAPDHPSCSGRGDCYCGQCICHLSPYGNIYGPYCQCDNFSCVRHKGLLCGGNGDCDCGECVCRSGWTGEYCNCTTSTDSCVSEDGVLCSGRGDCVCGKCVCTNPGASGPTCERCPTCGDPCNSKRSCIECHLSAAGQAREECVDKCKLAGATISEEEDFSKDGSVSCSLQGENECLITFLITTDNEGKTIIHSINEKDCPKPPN
Measured property: IC50 (nM)
One number for each entry, in nM.

# Compound, Observed measurement
records = [
    ("CC(C)(C#N)c1cc(Br)cc([C@H](CC(=O)O)NC(=O)CNC(=O)c2cc(O)cc(NC3=NCC(O)CN3)c2)c1 (stereo partly drawn)", 0.5),
    ("COCC1(c2cc(Cl)cc([C@H](CC(=O)O)NC(=O)CNC(=O)c3cc(O)cc(NC4=NCC(O)CN4)c3)c2)CCOCC1 (stereo partly drawn)", 0.5),
]

Suppose we examine the compound O=C(O)C[C@H](NC(=O)CNC(=O)c1cc(O)cc(NC2=NCC(O)CN2)c1)c1cc(Cl)cc(C2(CO)CCOCC2)c1 (stereo partly drawn) ; what IC50 value has been reported?
0.5

----------
target: Recombinant human integrin αvβ6 (Homo sapiens, UniProt P06756+P18564); assay: Solid Phase Receptor Assay for αvβ6 Function; details: binding to LAP-coated plate; read-out: αvβ6 SPRA IC50
Consider the following molecules; for each one, report its IC50.
Numbers only, in pM.

Example cases with answers are listed next.
# Molecule, Assay system, IC50 / pM
rows = [
    ("O=C(O)C[C@H](NC(=O)CNC(=O)c1cc(O)cc(NC2=NCC(O)CN2)c1)c1cc(Cl)cc(C2(CF)CCOCC2)c1 (some centres unmarked)", "Recombinant human integrin αvβ6 (Homo sapiens, UniProt P06756+P18564)", 1400),
    ("CC(C)(C)c1cc(-c2cncnc2)cc([C@H](CC(=O)O)NC(=O)CNC(=O)c2cc(O)cc(NC3=NCC(O)CN3)c2)c1 (some centres unmarked)", "Recombinant human integrin αvβ6 (Homo sapiens, UniProt P06756+P18564)", 700),
    ("CC(C)(C)c1cc(Br)cc([C@H](CC(=O)O)NC(=O)CNC(=O)c2cncc(NC3=NCC(O)CN3)c2)c1 (some centres unmarked)", "Recombinant human integrin αvβ6 (Homo sapiens, UniProt P06756+P18564)", 500),
    ("CC(C)(C)c1cc(-c2cccnc2)cc([C@H](CC(=O)O)NC(=O)CNC(=O)c2cc(O)cc(NC3=NCC(O)CN3)c2)c1 (some centres unmarked)", "Recombinant human integrin αvβ6 (Homo sapiens, UniProt P06756+P18564)", 600),
]

Suppose we examine the molecule CC(C)(C)c1cc(C#N)cc([C@H](CC(=O)O)NC(=O)CNC(=O)c2cc(O)cc(NC3=NCC(O)CN3)c2)c1 (some centres unmarked) ; what IC50 value has been reported?
400

----------
Consider the following compounds; for each one, report its pIC50.
target: Recombinant human integrin αvβ8 (Homo sapiens, UniProt P06756+P26012); experiment: Solid Phase Receptor Assay for αvβ8 Function; conditions: binding to LAP-coated plate; read-out: αvβ8 SPRA IC50
Sequence (P06756 31-992 limits assumed): as the sequence (P06756 31-992 limits assumed) above
Sequence (P26012 43-684 limits assumed): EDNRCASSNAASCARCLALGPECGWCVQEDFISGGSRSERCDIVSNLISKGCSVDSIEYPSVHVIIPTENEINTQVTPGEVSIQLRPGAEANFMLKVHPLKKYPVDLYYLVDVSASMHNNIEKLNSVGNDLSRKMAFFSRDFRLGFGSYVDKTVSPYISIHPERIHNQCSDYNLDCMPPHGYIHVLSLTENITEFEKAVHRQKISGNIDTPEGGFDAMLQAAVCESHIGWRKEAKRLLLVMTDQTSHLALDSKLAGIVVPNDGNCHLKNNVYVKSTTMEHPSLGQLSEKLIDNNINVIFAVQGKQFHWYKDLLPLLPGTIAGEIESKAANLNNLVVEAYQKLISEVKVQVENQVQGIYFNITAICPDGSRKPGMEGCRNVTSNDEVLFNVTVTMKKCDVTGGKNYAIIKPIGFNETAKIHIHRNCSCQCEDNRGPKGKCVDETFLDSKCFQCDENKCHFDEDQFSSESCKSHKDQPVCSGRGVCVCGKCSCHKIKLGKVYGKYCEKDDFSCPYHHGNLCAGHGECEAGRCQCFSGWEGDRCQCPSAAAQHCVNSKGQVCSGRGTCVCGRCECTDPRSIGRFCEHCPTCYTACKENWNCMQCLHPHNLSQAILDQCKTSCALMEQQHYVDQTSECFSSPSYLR
Give bare numbers, as −log10 of the molar value.

Example cases with answers are listed next.
# Compound, Observed measurement
measured = [
    ("CC(C)(C)c1cc(Br)cc([C@H](CC(=O)O)NC(=O)CNC(=O)c2cncc(NC3=NCC(O)CN3)c2)c1 (stereo partly shown)", 10.00),
    ("O=C(O)C[C@H](NC(=O)CNC(=O)c1cc(O)cc(NC2=NCC(O)CN2)c1)c1cc(Cl)cc(C2(CF)CCOCC2)c1 (stereo partly shown)", 9.30),
    ("CC(C)(C)c1cc(Br)cc([C@H](CC(=O)O)NC(=O)CNC(=O)c2cccc(NC3=NCCN3)c2)c1", 10.00),
]

Below are 4 compounds. Give each one its pIC50.
1. CC(C)(C)c1cc(Br)cc([C@H](CC(=O)O)NC(=O)CNC(=O)c2cc(O)cc(NC3=NCC(O)CN3)c2)c1O (stereo partly shown)
2. CC(C)(C)c1cc(-c2cncnc2)cc([C@H](CC(=O)O)NC(=O)CNC(=O)c2cc(O)cc(NC3=NCC(O)CN3)c2)c1 (stereo partly shown)
3. CC(C)(O)c1cc(Br)cc([C@H](CC(=O)O)NC(=O)CNC(=O)c2cc(O)cc(NC3=NCC(O)CN3)c2)c1 (stereo partly shown)
4. CC(C)(C)c1cc(C#N)cc([C@H](CC(=O)O)NC(=O)CNC(=O)c2cc(O)cc(NC3=NCC(O)CN3)c2)c1 (stereo partly shown)

10.00
9.40
9.40
9.70

----------
biological target: Recombinant human integrin α5β1 (Homo sapiens, UniProt P05556+P08648); assay: Solid Phase Receptor Assay for α5β1 Function; details: binding to fibronectin-coated plate; read-out: α5β1 SPRA IC50
Measured property: IC50

# Compound, IC50
measured = [
    ("CC(C)(C)c1cc(Br)cc([C@H](CC(=O)O)NC(=O)CNC(=O)c2cc(O)cc(NC3=NCC(O)CN3)c2)c1O (some centres unmarked) [Example 2]", "0.5 nM"),
]

Below are 3 compounds. Give each one its IC50.
1. O=C(O)C[C@H](NC(=O)CNC(=O)c1cc(O)cc(NC2=NCC(O)CN2)c1)c1cc(Br)cc(C2(C(F)F)CC2)c1 (some centres unmarked) [Example 26]
2. N#CC1(c2cc(Cl)cc([C@H](CC(=O)O)NC(=O)CNC(=O)c3cc(O)cc(NC4=NCC(O)CN4)c3)c2)CCOCC1 (some centres unmarked) [Example 22]
3. CC(C)(C)c1cc(Br)cc([C@H](CC(=O)O)NC(=O)CNC(=O)c2cncc(NC(=N)N)c2)c1 [Example 6]

1. 0.1 nM
2. 0.3 nM
3. 1 nM

Below are 5 compounds. Give each one its IC50.
1. CC(C)(C)c1cc(Br)cc([C@H](CC(=O)O)NC(=O)CNC(=O)c2cncc(NC3=NCC(O)CN3)c2)c1 (some centres unmarked) [Example 8]
2. CC(C)(C)c1cc(Br)cc([C@H](CC(=O)O)NC(=O)CNC(=O)c2cccc(NC(=N)N)c2)c1 [Example 5]
3. CC(O)(c1cc([C@H](CC(=O)O)NC(=O)CNC(=O)c2cc(O)cc(NC3=NCC(O)CN3)c2)cc(C(F)(F)F)c1)C(F)(F)F (some centres unmarked) [Example 25]
4. O=C(O)C[C@H](NC(=O)CNC(=O)c1cc(O)cc(NC2=NCC(O)CN2)c1)c1cc(Cl)cc(C2(CO)CCOCC2)c1 (some centres unmarked) [Example 17]
5. N#CC1(c2cc(Cl)cc([C@H](CC(=O)O)NC(=O)CNC(=O)c3cc(O)cc(NC4=NCC(O)CN4)c3)c2)CCC1 (some centres unmarked) [Example 21]

1: 0.4 nM; 2: 0.6 nM; 3: 0.4 nM; 4: 0.4 nM; 5: 0.3 nM

Below are 5 compounds. Give each one its IC50.
1. CC(C)(CO)c1cc(Cl)cc([C@H](CC(=O)O)NC(=O)CNC(=O)c2cc(O)cc(NC3=NCC(O)CN3)c2)c1 (some centres unmarked) [Example 15]
2. CC(C)(C)c1cc(C#N)cc([C@H](CC(=O)O)NC(=O)CNC(=O)c2cc(O)cc(NC3=NCC(O)CN3)c2)c1 (some centres unmarked) [Example 12]
3. CC(C)(C#N)c1cc(Br)cc([C@H](CC(=O)O)NC(=O)CNC(=O)c2cc(O)cc(NC3=NCC(O)CN3)c2)c1 (some centres unmarked) [Example 11]
4. CC(C)(O)c1cc(Br)cc([C@H](CC(=O)O)NC(=O)CNC(=O)c2cc(O)cc(NC3=NCC(O)CN3)c2)c1 (some centres unmarked) [Example 3]
5. CC(C)(O)c1cc(Cl)cc([C@H](CC(=O)O)NC(=O)CNC(=O)c2cc(O)cc(NC3=NCC(O)CN3)c2)c1 (some centres unmarked) [Example 4]

1. 0.4 nM
2. 0.3 nM
3. 0.3 nM
4. 0.3 nM
5. 0.7 nM
